# Tested on: 186277-243-T-J2-PDC spheroids with HUVEC/MSC, viability
# procedure summary: Anticancer human tumor 186277-243-T-J2-PDC patient-derived colon adenocarcinoma cell line growth inhibition [CLK]
# experimental parameters: second compound 10 µM; first compound 0.316 µM; hits give low values
# Text: A high-throughput screen of multi-cell type tumor spheroids was designed to identify active combinations of […] and targeted small molecules. Complex spheroids include a stromal component modeled by human endothelial cells (HUVEC) and fibroblasts modeled by human mesenchymal stem cells (MSCs). […] Compounds. […] If the clinical Cmax for an agent had not been determined, the highest concentration tested was 10 microM. […]
readout label: viability, T/C (%)
Give the value in % but do not write % after it.

Known results for compounds:
compound="CCN1CCN(Cc2ccc(Nc3ncc(F)c(-c4cc(F)c5nc(C)n(C(C)C)c5c4)n3)nc2)CC1 + CNC(=O)c1ccc(Nc2nc(OC3CCCC3)c3c(-c4ccc5nc(C)oc5c4)c[nH]c3n2)c(OC)c1" assayed_system="186277-243-T-J2-PDC spheroids with HUVEC/MSC, viability" readout_label="viability, T/C" reported_value=47.8
compound="CC(Nc1ccc2c(c1)OCCn1cc(N3C(=O)OCC3C(F)F)nc1-2)C(N)=O (stereo not given) + CNC(=O)c1ccc(Nc2nc(OC3CCCC3)c3c(-c4ccc5nc(C)oc5c4)c[nH]c3n2)c(OC)c1" assayed_system="186277-243-T-J2-PDC spheroids with HUVEC/MSC, viability" readout_label="viability, T/C" reported_value=10.9
compound="C=C(F)C(=O)N1CCN(c2nc(OCC3CCCN3C)nc3c2CCN(c2cccc4cccc(Cl)c24)C3)CC1CC#N (stereo not given) + CN1CCN(c2cc(C(=O)Nc3cc4cc(-c5cnn(C)c5)ccc4cn3)ccn2)CC1" assayed_system="186277-243-T-J2-PDC spheroids with HUVEC/MSC, viability" readout_label="viability, T/C" reported_value=1.19

Param item = Nc1ccccc1NC(=O)c1ccc(CNC(=O)OCc2cccnc2)cc1 + CNC(=O)c1ccc(Nc2nc(OC3CCCC3)c3c(-c4ccc5nc(C)oc5c4)c[nH]c3n2)c(OC)c1 ; retrieve measured viability, T/C.
35.7

What do we get for CC1COCCN1c1cc(C2(S(C)(=N)=O)CC2)nc(-c2ccnc3[nH]ccc23)n1 (stereo not given) + CN1CCN(c2cc(C(=O)Nc3cc4cc(-c5cnn(C)c5)ccc4cn3)ccn2)CC1 ?
1.19

----------
Recorded viability, T/C, one value per entry.
# System: 186277-243-T-J2-PDC spheroids with HUVEC/MSC, viability
# procedure summary: Anticancer human tumor 186277-243-T-J2-PDC cell line growth inhibition [CLK];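 note: compound exposure lasted seven days before readout; 100% = DMSO vehicle control wells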
# experimental parameters: second compound 3.16 µM; first compound 3.16 µM; hits give low values
Give the value in % but do not write % after it.

Known results for compounds:
compound="CC(=O)O[C@H]1C(=O)[C@@]2(C)[C@H]([C@H](OC(=O)c3ccccc3)[C@]3(O)C[C@H](OC(=O)[C@H](O)[C@@H](NC(=O)c4ccccc4)c4ccccc4)C(C)=C1C3(C)C)[C@]1(OC(C)=O)CO[C@@H]1C[C@@H]2O + CN1CCN(c2cc(C(=O)Nc3cc4cc(-c5cnn(C)c5)ccc4cn3)ccn2)CC1" readout_label="viability, T/C" reported_value=2.07
compound="CC1(C)CCC(CN2CCN(c3ccc(C(=O)NS(=O)(=O)c4ccc(NCC5CCOCC5)c([N+](=O)[O-])c4)c(Oc4cnc5[nH]ccc5c4)c3)CC2)=C(c2ccc(Cl)cc2)C1 + CNC(=O)c1ccc(Nc2nc(OC3CCCC3)c3c(-c4ccc5nc(C)oc5c4)c[nH]c3n2)c(OC)c1" readout_label="viability, T/C" reported_value=32.1

Consider the record given below.
Param item = CC(CO)NC(=O)c1cc(-c2ccc(Cl)cc2)nn(-c2cnn(C)c2)c1=O (stereo not drawn) + CN1CCN(c2cc(C(=O)Nc3cc4cc(-c5cnn(C)c5)ccc4cn3)ccn2)CC1 ; retrieve measured viability, T/C.
1.15
